- System: c-Src;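 note: 11-residue human phosphosite peptides and single-mutation variants displayed on the E. coli surface, counted by deep sequencing, each peptide's frequency after selection divided by its frequency in the unselected input library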;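 note: frequency after pTyr selection over input frequency; kinase dosed for 20-30% of maximal phosphorylation in three min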
- Assay name: phosphorylation enrichment, bacterial display (enrichment ratio); higher = better substrate or ligand; peptides without Tyr show the background
Value type: phosphorylation enrichment
Numbers only.

Look over these answered cases.
| Residue codes | Assayed system | phosphorylation enrichment |
| --- | --- | --- |
| IYETDYYRKGG [INSR_Y1189] | c-Src | 1.16 |
| IQSAKYDMAED [TTC21B_Y1213] | c-Src | 0.513 |
| QPSALYEDRFL [ASS1_Y83_S79P_YF] | c-Src | 1.41 |

Hi, could you look up phosphorylation enrichment for each item in my list?
1. GDGRFYMKEAI [PGM1_Y66]
2. SRPHLYGTPSR [ADGRE2_Y670]
3. CNRADYSKLAS [GNE_Y22_P27S]

[A]
[0.38, 0.441, 0.369]
